- Test system: gene editing with Cas9
- procedure details: Screen of 322 new SSAP proteins, gene editing activity with Cas9 (Table 5)
- Format: cell-based
- recorded conditions: normalized
readout name: Cas9 with SSAP activity (normalized)

molecule: SSAP_11: SEQ ID NO: 180; Bet Lactococcus phage phiLC3 (protein, listed as Lactococcus lactis) ANEIDIYDAKNLNTATVKKFLKGGGQASDEELAMLLAISRNQNMNPFMKEVYFIKYGSAAAQIVVSRDFYRKRAFQNPNFAGIEVGVIVLNKDGVLEHNEGTFKTKDQELVGAWARVHLKNTEIPVYVAVSYDEYVQMKNGQPNSMWTNKPCTMLGKVAESQALRMAFPAEFSGTYGEEEYPEPEKEPREVNGVKEPDRAQIESFDKENYAARKIEELKEKAQPQKEFVEEIGEAIDEITAEDF
readout name: Cas9 with SSAP activity (normalized)
measurement: −0.870

molecule: SSAP_159: SEQ ID NO: 328; Clostridium hathewayi CAG: 224 (protein, listed as Clostridium hathewayi) ANDIRGELARRASGTETQAVKLTKNMSIPDMIKALEPEIKRALPTILTPERFTRIALSAINNTPKLAECSPMSFIAALMNAAQLGLEPNTPLGQAFLIPYKVKGSLECQFQIGYRGMIDLAYRNERVQSIEAHTVYENDVFEYELGLNPRLVHIPTMEEPGDPIAFYGIFRLDNGGFRFEVMNKNAIDAYAARYSKAYDSASSPWKNNYESMACKTVLKQLLKYSPMKSEFQKAVSMDESVKTELSVDMSEVQNVNLIEETQEDAA
readout name: Cas9 with SSAP activity (normalized)
measurement: 2.756

molecule: SSAP_19: SEQ ID NO: 188 (protein) NTPTMKRKFEEVLHENANAFMSNVMTLVSNDSYLAESEPMSILSGALTAATLNLGLDKNLGYAYLVPFNTKNKQTGKWERKAQFILGYKGYIQLAQRSGKYKALNVIEVYEGELLSWNRLTEEFEFDPNGRQSDDVIGYVGYFELLNGFKKTVYWTKQEIEAHRIANSKDKEKTKLSGVWATDYNAMARKTVLRNMLSKWGILSIEMQEATTSDEKVQQMQEDGNIISETEVEENTTMKTAEVINEADSDSLNQTDLFDTKNPPLE
readout name: Cas9 with SSAP activity (normalized)
measurement: −0.329

molecule: SSAP_188: SEQ ID NO: 357; Propionibacterium freudenreichii (protein, listed as Propionibacterium freudenreichii) TQQMPIKAQGEPTKELQQKAAVDRFNATLHQMQNEIARALPKHMTGDRFVRIVLTEVRKNPTLALCDPLTMFGSLLTAAALGLEPGLNGECWLVPRKNHGTLEAQLQVGYRGVVKLFWQNPAATYLDTGYVCERDEFRFAKGLNPILEHTPAEGDRGKVVRYYAVAGLNTGARVFDVFTPAQIKTLRGGKVGSNGDIPDPEHWMERKTALLQVLKLMPKSTQLAAVPAADGRAHTISDAQQIFGGVDPTTGEVLDAEPVEDGAA
readout name: Cas9 with SSAP activity (normalized)
measurement: −0.994
